Tested on: MCF-7 (ER-positive) human breast cancer cell line
Assay overview: MTT cell viability assay, MCF-7 cells
Assay conditions: Homo sapiens, MCF7, 96 h, read-out: MCF-7 (ER positive) IC50
Reported pIC50 is given for each of the following molecules.
By convention, pIC50 is the negative base-10 log of a molar concentration.

Here are 3 molecules together with their reported answers.
# Molecule, pIC50
records = [
    ("OCCOc1ccc(/C(=C(/CCCl)c2ccccc2)c2ccccc2)cc1 [Ospemifene, reference compound]", 4.26),
    ("NCCOc1ccc(/C(=C(/CCN)c2ccccc2)c2ccccc2)cc1", 4.95),
    ("O=C(NCC/C(=C(\\c1ccccc1)c1ccc(OCCO)cc1)c1ccccc1)Oc1ccccc1", 4.30),
]

# ---- query molecule ----
For the molecule shown here, NCC/C(=C(\c1ccccc1)c1ccc(OCCO)cc1)c1ccccc1 , give the reported pIC50.
4.91

----------
Endpoint label: melting point

# Compound, melting point
data = [
    ("[N-]=[N+]=NCC/C(=C(\\c1ccccc1)c1ccc(OCCO)cc1)c1ccccc1 [Compound 4]", "126 to 128 °C"),
    ("COc1ccc(/C(=C(/CCNC(=O)NC2CCCCC2)c2ccccc2)c2ccccc2)cc1 [Compound 17]", "168 to 170 °C"),
    ("COc1ccc(/C(=C(/CCNC(=O)N2CCCC2)c2ccccc2)c2ccccc2)cc1 [Compound 21]", "194.2 to 195.4 °C"),
    ("COc1ccc(/C(=C(/CCCl)c2ccccc2)c2ccccc2)cc1 [Compound 11]", "87 to 89 °C"),
    ("COc1ccc(/C(=C(/CCNC(=O)C(=O)N2CCCC2)c2ccccc2)c2ccccc2)cc1 [Compound 24]", "151 to 152 °C"),
    ("COc1ccc(/C(=C(/CCNC(=O)N2CCOCC2)c2ccccc2)c2ccccc2)cc1 [Compound 18]", "139 to 141 °C"),
    ("[N-]=[N+]=NCCOc1ccc(/C(=C(/CCCl)c2ccccc2)c2ccccc2)cc1 [Compound 3]", "88 to 90 °C"),
    ("COc1ccc(/C(=C(/CCNC(=O)C(=O)NCc2ccccc2)c2ccccc2)c2ccccc2)cc1 [Compound 22]", "169 to 172 °C"),
    ("COc1ccc(/C(=C(/CCNC(=O)C(=O)NC2CCCCC2)c2ccccc2)c2ccccc2)cc1 [Compound 23]", "198 to 199 °C"),
]

# ---- query compound ----
For the compound shown here, O=C(NCC/C(=C(\c1ccccc1)c1ccc(OCCO)cc1)c1ccccc1)Oc1ccccc1 [Compound 8] , give the reported melting point.
121 to 123 °C

----------
Test system: MCF-7 (ER-positive) human breast cancer cell line
Assay overview: MTT cell viability assay, MCF-7 cells
Assay conditions: 0.5-25 μM, 48 h (FIG. 3)

# Structure smiles string, anticancer activity in initial screening
records = [
    ("[N-]=[N+]=NCCOc1ccc(/C(=C(/CCCl)c2ccccc2)c2ccccc2)cc1", "inactive"),
    ("CS(=O)(=O)OCCOc1ccc(/C(=C(/CCCl)c2ccccc2)c2ccccc2)cc1", "inactive"),
]

----------
System: MCF-7 (ER-positive) human breast cancer cell line
Assay overview: MTT cell viability assay, MCF-7 cells
Assay conditions: Homo sapiens, MCF7, 72 h, read-out: MCF-7 IC50
pIC50: −log10 of the molar value.
Endpoint label: pIC50

# Structure smiles string, Measured
records = [
    ("COc1ccc(/C(=C(/CCNC(=O)NCc2ccccc2)c2ccccc2)c2ccccc2)cc1", "< 4.30"),
]

For the molecule shown here, COc1ccc(/C(=C(/CCNC(=O)N2CCCC2)c2ccccc2)c2ccccc2)cc1 , give the reported pIC50.
< 4.30

For the molecule shown here, COc1ccc(/C(=C(/CCNC(=O)N2CCCCC2)c2ccccc2)c2ccccc2)cc1 , give the reported pIC50.
< 4.30

For the molecule shown here, COc1ccc(/C(=C(/CCNC(=O)C(=O)NC2CCCCC2)c2ccccc2)c2ccccc2)cc1 , give the reported pIC50.
4.92

For the molecule shown here, CCN(CC)C(=O)NCC/C(=C(\c1ccccc1)c1ccc(OC)cc1)c1ccccc1 , give the reported pIC50.
< 4.30

For the molecule shown here, COc1ccc(/C(=C(/CCNC(=O)NC2CCCCC2)c2ccccc2)c2ccccc2)cc1 , give the reported pIC50.
4.43

For the molecule shown here, COc1ccc(/C(=C(/CCNC(=O)C(=O)NCc2ccccc2)c2ccccc2)c2ccccc2)cc1 , give the reported pIC50.
< 4.30

For the molecule shown here, COc1ccc(/C(=C(/CCNC(=O)C(=O)N2CCCCC2)c2ccccc2)c2ccccc2)cc1 , give the reported pIC50.
< 4.30

For the molecule shown here, CCOC(=O)C(=O)NCC/C(=C(\c1ccccc1)c1ccc(OC)cc1)c1ccccc1 , give the reported pIC50.
< 4.30

----------
Endpoint label: melting point

# Structure smiles string, melting point
data = [
    ("COc1ccc(/C(=C(/CCNC(=O)C(=O)N2CCOCC2)c2ccccc2)c2ccccc2)cc1", "118.4 to 119.3 °C"),
    ("CCN(CC)C(=O)NCC/C(=C(\\c1ccccc1)c1ccc(OC)cc1)c1ccccc1", "159 to 160 °C"),
    ("COc1ccc(/C(=C(/CCNC(=O)C(=O)N2CCCCC2)c2ccccc2)c2ccccc2)cc1", "125 to 127 °C"),
]

# ---- query molecule ----
For the molecule shown here, CS(=O)(=O)OCCOc1ccc(/C(=C(/CCCl)c2ccccc2)c2ccccc2)cc1 , give the reported melting point.
84 to 86 °C

----------
Reported pIC50 is given for each of the following compounds.
System: MDA-MB-231 (ER-negative) human breast cancer cell line
Assay overview: MTT cell viability assay, MDA-MB-231 cells
Assay conditions: Homo sapiens, MDA-MB-231, 48 h, read-out: MDA-MB-231 (ER− negative) IC50
pIC50: −log10 of the molar value.

# Compound, pIC50
records = [
    ("OCCOc1ccc(/C(=C(/CCCl)c2ccccc2)c2ccccc2)cc1 [Ospemifene, reference compound]", "< 4.00"),
    ("[N-]=[N+]=NCC/C(=C(\\c1ccccc1)c1ccc(OCCO)cc1)c1ccccc1 [Compound 4]", "< 4.00"),
]

# ---- query compound ----
For the compound shown here, O=C(NCC/C(=C(\c1ccccc1)c1ccc(OCCO)cc1)c1ccccc1)Oc1ccccc1 [Compound 8] , give the reported pIC50.
< 4.00

----------
Reported IC50 is given for each of the following compounds.
Test system: MCF-7 (ER-positive) human breast cancer cell line
Assay overview: MTT cell viability assay, MCF-7 cells
Assay conditions: Homo sapiens, MCF7, 72 h, read-out: MCF-7 IC50

# Structure smiles string, Study target, Endpoint label, Measured
data = [
    ("COc1ccc(/C(=C(/CCNC(=O)C(=O)N2CCOCC2)c2ccccc2)c2ccccc2)cc1", "MCF-7 (ER-positive) human breast cancer cell line", "IC50", "43.4 µM"),
    ("COc1ccc(/C(=C(/CCNC(=O)C(=O)N2CCCC2)c2ccccc2)c2ccccc2)cc1", "MCF-7 (ER-positive) human breast cancer cell line", "IC50", "> 50 µM"),
]

# ---- query compound ----
For the compound shown here, COc1ccc(/C(=C(/CCNC(=O)N2CCOCC2)c2ccccc2)c2ccccc2)cc1 , give the reported IC50.
> 50 µM

----------
Endpoint label: melting point

For the compound shown here, COc1ccc(/C(=C(/CCNC(=O)N2CCCCC2)c2ccccc2)c2ccccc2)cc1 , give the reported melting point.
197 to 198 °C

For the compound shown here, COc1ccc(/C(=C(/CCNC(=O)NCc2ccccc2)c2ccccc2)c2ccccc2)cc1 , give the reported melting point.
158 to 160 °C

For the compound shown here, COc1ccc(/C(=C(/CCN=[N+]=[N-])c2ccccc2)c2ccccc2)cc1 , give the reported melting point.
126 to 128 °C

For the compound shown here, COc1ccc(/C(=C(/CCN)c2ccccc2)c2ccccc2)cc1 , give the reported melting point.
129 to 131 °C
